Experiment: Cytotoxicity against dog MDCK cells infected with Influenza A virus H3N2 assessed as reduction in cell viability by visual analysis
Assay type: toxicity, cell-based, Canis lupus familiaris
Readout label: CC50

Task: Specify reported CC50 for the compound shown: Nc1ncnn2c([C@@H]3N[C@H](CO)[C@@H](O)[C@H]3O)ccc12
Result: 12 µM

###

Assay: Selectivity index, ratio of CC50 for cytotoxicity against African green monkey Vero cells infected with Tacaribe virus assessed as reduction in cell viability by visual analysis to EC50 for antiviral activity against Tacaribe virus infected in African green monkey Vero cells assessed as reduction in viral replication by visual analysis
Assay type: toxicity, cell-based
Settings: read-out: Ratio CC50/EC50
Readout label: selectivity ratio

Task: Quickly give me recorded selectivity ratio for Nc1ncnn2c([C@@H]3N[C@H](CO)[C@@H](O)[C@H]3O)ccc12
Result: 32
